- Test system: SF-539
- measurement protocol: Growth inhibition of human SF539 cells after 48 hrs
- Type: functional
- condition label: SF-539, 48 h
measure: GI50 (µM)
Numbers only, in µM.

See these solved cases before continuing.
NS(=O)(=O)c1ccc(CNc2nc(-c3cccs3)nc3ccc(I)cc23)cc1 = 11
O=c1c2cc(I)ccc2nc(-c2cccs2)n1NC(=S)Nc1ccccc1 = 34
O=C(Nn1c(-c2cccs2)nc2ccc(I)cc2c1=O)c1ccccc1 = 30

Quick batch: GI50 for everything below.
1. O=S(=O)(Nc1nccs1)c1ccc(Nc2nc(-c3cccs3)nc3ccc(I)cc23)cc1
2. O=c1c2cc(I)ccc2nc(-c2cccs2)n1Nc1ccccc1

Solution:
[32, 34]

====

- measurement protocol: Growth inhibition of human ovarian cancer cells after 48 hrs
- Format: functional
- condition label: Cancer cell lines
Decision: TGI beneath 70 µM gives 1; TGI meeting or exceeding 70 µM gives -1.

Past entries and their recorded results:
O=c1[nH]cc(F)c(=O)[nH]1 = -1
NNC(=O)COc1nc(-c2cccs2)nc2ccc(I)cc12 = -1
NS(=O)(=O)c1ccc(-n2c(-c3cccs3)nc3ccc(I)cc3c2=O)cc1 = 1
O=C(Nn1c(-c2cccs2)nc2ccc(I)cc2c1=O)c1ccccc1 = -1
O=c1c2cc(I)ccc2nc(-c2cccs2)n1/N=C/c1ccccc1 = -1

Exercise: Say whether its TGI is strictly beneath 70 µM. Entry: `O=C(Nc1ccc(I)cc1C(=O)Nc1ccc(O)cc1)c1cccs1`
Solution: 1

Exercise: Say whether its TGI is strictly beneath 70 µM. Entry: `O=c1c2cc(I)ccc2nc(-c2cccs2)n1NC(=S)Nc1ccccc1`
Solution: -1

Exercise: Say whether its TGI is strictly beneath 70 µM. Entry: `NS(=O)(=O)c1ccc(CNc2nc(-c3cccs3)nc3ccc(I)cc23)cc1`
Solution: 1

Exercise: Say whether its TGI is strictly beneath 70 µM. Entry: `CCCCNC(=O)c1cc(I)ccc1NC(=O)c1cccs1`
Solution: -1

Exercise: Say whether its TGI is strictly beneath 70 µM. Entry: `O=c1c2cc(I)ccc2nc(-c2cccs2)n1O`
Solution: -1

====

Would you mind telling me the reported GI50 of each entry?
- measurement protocol: Growth inhibition of human ovarian cancer cells after 48 hrs
- Assay type: functional
- condition label: Cancer cell lines
Numbers only, in µM.

O=c1c2cc(I)ccc2nc(-c2cccs2)n1-c1ccc(S(=O)(=O)Nc2nccs2)cc1 = 46.5

Quick batch: GI50 for everything below.
1. O=c1c2cc(I)ccc2nc(-c2cccs2)n1Nc1ccccc1
2. CC(=O)CC(=O)Nn1c(-c2cccs2)nc2ccc(I)cc2c1=O
3. O=c1c2cc(I)ccc2nc(-c2cccs2)n1O

Solution:
1. 8.6
2. 40.9
3. 32.1

====

- Test system: K562
- measurement protocol: Growth inhibition of human K562 cells after 48 hrs
- Format: functional
- condition label: K562, 48 h
Would you mind telling me the reported TGI of each entry?

NNC(=O)COc1nc(-c2cccs2)nc2ccc(I)cc12 = > 100 µM
NS(=O)(=O)c1ccc(CNc2nc(-c3cccs3)nc3ccc(I)cc23)cc1 = > 100 µM
O=S(=O)(Nc1nccs1)c1ccc(Nc2nc(-c3cccs3)nc3ccc(I)cc23)cc1 = > 100 µM

Quick batch: TGI for everything below.
1. O=C(Nn1c(-c2cccs2)nc2ccc(I)cc2c1=O)c1ccccc1
2. O=c1c2cc(I)ccc2nc(-c2cccs2)n1NC(=S)Nc1ccccc1

Solution:
1: > 100 µM; 2: 10 µM

Quick batch: TGI for everything below.
1. O=c1c2cc(I)ccc2nc(-c2cccs2)n1Nc1ccccc1
2. O=C(Nc1ccc(I)cc1C(=O)Nc1ccc(O)cc1)c1cccs1
3. NS(=O)(=O)c1ccc(-n2c(-c3cccs3)nc3ccc(I)cc3c2=O)cc1

Solution:
1. 23 µM
2. > 100 µM
3. > 100 µM

====

Would you mind telling me the reported GI50 of each entry?
- measurement protocol: Growth inhibition of human leukemia cells after 48 hrs
- Format: functional
- condition label: Leukemia cell
Numbers only, in µM.

See these solved cases before continuing.
O=S(=O)(Nc1nccs1)c1ccc(Nc2nc(-c3cccs3)nc3ccc(I)cc23)cc1 = 21.7
O=C(Nn1c(-c2cccs2)nc2ccc(I)cc2c1=O)c1ccccc1 = 33.9

Exercise: Supply GI50 value. Item: `O=C(Nc1ccc(I)cc1C(=O)Nc1ccc(O)cc1)c1cccs1`
Solution: 11.5

====

Would you mind telling me the reported TGI of each entry?
- Tested on: NSCLC
- measurement protocol: Growth inhibition of human NSCLC cells after 48 hrs
- Format: functional
Answers are plain numbers, in µM.

Quick batch: TGI for everything below.
1. O=C(Nn1c(-c2cccs2)nc2ccc(I)cc2c1=O)c1ccccc1
2. O=c1c2cc(I)ccc2nc(-c2cccs2)n1O
3. O=c1c2cc(I)ccc2nc(-c2cccs2)n1NC(=S)Nc1ccccc1

Solution:
1. 75.3
2. 91.2
3. 75.2

====

- measurement protocol: Growth inhibition of human leukemia cells after 48 hrs
- Format: functional
- condition label: Leukemia cell
measure: GI50 (µM)
Numbers only, in µM.

See these solved cases before continuing.
O=c1c2cc(I)ccc2nc(-c2cccs2)n1-c1ccc(S(=O)(=O)Nc2nccs2)cc1 = 54
O=c1c2cc(I)ccc2nc(-c2cccs2)n1Nc1ccccc1 = 12.7
O=c1[nH]cc(F)c(=O)[nH]1 = 15.1
CCCCNC(=O)c1cc(I)ccc1NC(=O)c1cccs1 = 83.8

Quick batch: GI50 for everything below.
1. O=c1c2cc(I)ccc2nc(-c2cccs2)n1NC(=S)Nc1ccccc1
2. NS(=O)(=O)c1ccc(-n2c(-c3cccs3)nc3ccc(I)cc3c2=O)cc1
3. NNC(=O)COc1nc(-c2cccs2)nc2ccc(I)cc12
4. O=c1c2cc(I)ccc2nc(-c2cccs2)n1O
5. CC(=O)CC(=O)Nn1c(-c2cccs2)nc2ccc(I)cc2c1=O
6. NS(=O)(=O)c1ccc(CNc2nc(-c3cccs3)nc3ccc(I)cc23)cc1

Solution:
11.5
35.3
25.4
34.3
38.5
23.9

Exercise: Supply GI50 value. Item: `O=c1c2cc(I)ccc2nc(-c2cccs2)n1/N=C/c1ccccc1`
Solution: 63.4

====

- Test system: HL-60(TB)
- measurement protocol: Growth inhibition of human HL-60(TB) cells after 48 hrs
- Type: functional
- condition label: HL-60, 48 h
Would you mind telling me the reported GI50 of each entry?
One number for each entry, in nM.

See these solved cases before continuing.
O=C(Nn1c(-c2cccs2)nc2ccc(I)cc2c1=O)c1ccccc1 = 34000
O=c1c2cc(I)ccc2nc(-c2cccs2)n1NC(=S)Nc1ccccc1 = 1000

Exercise: Supply GI50 value. Item: `O=c1c2cc(I)ccc2nc(-c2cccs2)n1Nc1ccccc1`
Solution: 400

====

- Tested on: MCF7
- measurement protocol: Growth inhibition of human MCF7 cells after 48 hrs
- Format: functional
- condition label: MCF7, 48 h
measure: TGI (µM)
Numbers only, in µM.

NS(=O)(=O)c1ccc(CNc2nc(-c3cccs3)nc3ccc(I)cc23)cc1 = 16

Next item in the queue.
Exercise: Supply TGI value. Item: `O=C(Nc1ccc(I)cc1C(=O)Nc1ccc(O)cc1)c1cccs1`
Solution: 33

====

- measurement protocol: Growth inhibition of human melanoma cells after 48 hrs
- Type: functional
- condition label: Melanoma cell
measure: GI50 (µM)
One number for each entry, in µM.

See these solved cases before continuing.
O=C(Nc1ccc(I)cc1C(=O)Nc1ccc(O)cc1)c1cccs1 = 11.1
CC(=O)CC(=O)Nn1c(-c2cccs2)nc2ccc(I)cc2c1=O = 37.7
O=c1c2cc(I)ccc2nc(-c2cccs2)n1Nc1ccccc1 = 8.5
NNC(=O)COc1nc(-c2cccs2)nc2ccc(I)cc12 = 19.4
NS(=O)(=O)c1ccc(CNc2nc(-c3cccs3)nc3ccc(I)cc23)cc1 = 16

Next item in the queue.
Exercise: Supply GI50 value. Item: `O=S(=O)(Nc1nccs1)c1ccc(Nc2nc(-c3cccs3)nc3ccc(I)cc23)cc1`
Solution: 18.9

====

Would you mind telling me the reported TGI of each entry?
- System: NSCLC
- measurement protocol: Growth inhibition of human NSCLC cells after 48 hrs
- Type: functional
Answers are plain numbers, in µM.

See these solved cases before continuing.
NNC(=O)COc1nc(-c2cccs2)nc2ccc(I)cc12 = 59.6
CC(=O)CC(=O)Nn1c(-c2cccs2)nc2ccc(I)cc2c1=O = 86.4
O=c1c2cc(I)ccc2nc(-c2cccs2)n1Nc1ccccc1 = 88
NS(=O)(=O)c1ccc(CNc2nc(-c3cccs3)nc3ccc(I)cc23)cc1 = 37
O=C(Nc1ccc(I)cc1C(=O)Nc1ccc(O)cc1)c1cccs1 = 33.1
O=c1c2cc(I)ccc2nc(-c2cccs2)n1-c1ccc(S(=O)(=O)Nc2nccs2)cc1 = 89.5

Next item in the queue.
Exercise: Supply TGI value. Item: `NS(=O)(=O)c1ccc(-n2c(-c3cccs3)nc3ccc(I)cc3c2=O)cc1`
Solution: 61.3
